Hello, the source for this data is ChEMBL document CHEMBL3232856, in case you need it.

biological target: Delta-type opioid receptor (Rattus norvegicus); test: Displacement of [3H]deltorphin-2 from delta opioid receptor in Sprague-Dawley rat brain P2 synaptosomal membranes
Sequence (P33533 whole entry): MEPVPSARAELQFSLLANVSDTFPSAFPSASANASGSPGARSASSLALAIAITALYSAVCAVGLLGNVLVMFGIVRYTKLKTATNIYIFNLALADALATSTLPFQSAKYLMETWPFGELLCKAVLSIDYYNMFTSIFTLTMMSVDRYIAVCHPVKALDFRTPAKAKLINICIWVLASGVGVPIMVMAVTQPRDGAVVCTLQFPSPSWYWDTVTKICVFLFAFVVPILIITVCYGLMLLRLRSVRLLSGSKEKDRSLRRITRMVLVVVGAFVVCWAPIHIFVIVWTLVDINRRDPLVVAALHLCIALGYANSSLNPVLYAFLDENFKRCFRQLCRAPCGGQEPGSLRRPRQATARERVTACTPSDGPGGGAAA
Residues, ends and D or L forms follow the SMILES beside them.
What Ki was measured for each of the following?
Answers are plain numbers, in nM.

The cases that follow already have their Ki on record.
>  <compound>
Cc1cc(C)c(C[C@H](NC(=O)[C@@H]2CCCN2C(=O)[C@@H](N)Cc2c(C)cc(O)cc2C)C(N)=O)c(C)c1

>  <Ki (nM)>
13.1

$$$$
>  <compound>
Cc1cc(O)cc(C)c1C[C@H](N)C(=O)N1CCC[C@H]1C(=O)N[C@@H](Cc1ccccc1)C(=O)N[C@@H](Cc1cccc2ccccc12)C(N)=O (HELM PEPTIDE1{[Cc1cc(O)cc(C)c1C[C@H](N)C(=O)[*:2]].P.F.[O=C([C@H](Cc1cccc2ccccc12)N[*:1])[*:2]].[am]}$$$$V2.0)

>  <Ki (nM)>
51.7

$$$$

Kindly review the next compound as well.
Consider Cc1cc(O)cc(C)c1C[C@H](N)C(=O)N1CCC[C@H]1C(=O)N[C@@H](Cc1ccc2ccccc2c1)C(N)=O (HELM PEPTIDE1{[Cc1cc(O)cc(C)c1C[C@H](N)C(=O)[*:2]].P.[O=C([C@H](Cc1ccc2ccccc2c1)N[*:1])[*:2]].[am]}$$$$V2.0) . Its measured Ki is 68.3
